Reported CHI Log D values for the following compounds.
Assay: CHI Log D procedure
Assay type: physicochemical
Conditions: pH 7.4

# example entries with known answers
CC[C@H](C)[C@@H]1NC(=O)[C@H](CC(=O)O)NC(=O)[C@]2(CC=CCCCC3(CCCC=CCCCCCC[C@@](C)(C(=O)N[C@@H](Cc4ccccc4)C(=O)N[C@@H](Cc4csc5ccccc45)C(=O)N[C@@H](CCC(N)=O)C(N)=O)NC(=O)[C@H](CCC(N)=O)NC(=O)[C@H](Cc4ccccc4)NC(=O)[C@H](CC(C)C)NC(=O)[C@H](C)NC(=O)[C@H](CCC(=O)O)NC(=O)[C@H](CC(=O)O)NC3=O)NC1=O)CCCN2C(C)=O (stereo partly drawn) [I-659]
2.903
CC(=O)N1CCC[C@]12CC=CCCCC1(CCCC=CCCCCCC[C@@](C)(C(=O)N[C@@H](Cc3ccccc3)C(=O)N[C@@H](Cc3csc4ccccc34)C(=O)N[C@@H](Cc3c[nH]cn3)C(N)=O)NC(=O)[C@H](CC(N)=O)NC(=O)[C@H](Cc3ccccc3)NC(=O)[C@H](C)NC(=O)[C@H](C)NC(=O)[C@H](CC(=O)O)NC(=O)[C@H](CC(=O)O)NC1=O)NC(=O)[C@H](CC(C)C)NC(=O)[C@H](CC(=O)O)NC2=O (stereo partly drawn) [I-565]
2.435

Now for another entry.
CHI Log D measured on CC[C@H](C)[C@@H]1NC(=O)[C@H](CC(=O)O)NC(=O)[C@]2(CC=CCCCC3(CCCC=CCCCCCC[C@@](C)(C(=O)N[C@@H](Cc4ccccc4)C(=O)N[C@@H](Cc4csc5ccccc45)C(N)=O)NC(=O)[C@H](CC(N)=O)NC(=O)[C@H](Cc4ccccc4)NC(=O)[C@H](C)NC(=O)[C@H](C)NC(=O)[C@H](CCC(=O)O)NC(=O)[C@H](CC(=O)O)NC3=O)NC1=O)CCCN2C(C)=O (stereo partly drawn) [I-715] = 2.762

Each recorded value in this set is attributed to patent US20240116985A1.
